subject of test: cAPK Cα (Homo sapiens)
test details: Inhibition of TAMRA-kemptide phosphorylation catalyzed by cAPK Cα (TLC, fluorescence imaging)
Format: biochemical
Design: purchased Biaffin AG
experimental conditions: 100 μM ATP and 30 μM TAMRA-kemptide; read-out: IC50
Starred links: 1 amine or outer side, 2 acyl side, 3 side chain; linkers in the order of their positions; H or OH if unused. Non-standard residues stand in square brackets, D forms with d. Residues, ends and D or L forms follow the SMILES beside them. *: point of attachment. Adenosine(5'-uronoyl) = Nc1ncnc2c1ncn2[C@@H]1O[C@H](C(=O)*)[C@@H](O)[C@H]1O; X3 = CN(CCCCCC(=O)[*:2])[*:1]; 4Amb = NCc1ccc(C(=O)O)cc1; Ahx = NCCCCCC(=O)O; βAla = NCCC(=O)O
Lab note: compare IC50 with 3 µM, writing Condition met if less and Condition not met if equal or more.

As a guide, the following entries are already answered.
| compound | subject of test | class label |
| --- | --- | --- |
| N=C(N)NCCC[C@H](NC(=O)[C@H](CCCNC(=N)N)NC(=O)[C@H](CCCNC(=N)N)NC(=O)[C@H](CCCNC(=N)N)NC(=O)c1ccc(CNC(=O)[C@H]2O[C@@H](n3cnc4c(N)ncnc43)[C@H](O)[C@@H]2O)cc1)C(N)=O [Compound 7] ({Adenosine(5'-uronoyl)-4Amb}-RRRR-NH2) | cAPK Cα (Homo sapiens) | Condition not met |
| Nc1ncnc2c1ncn2[C@@H]1O[C@H](CO)[C@@H](O)[C@H]1O [Ado, adenosine, reference compound] | cAPK Cα (Homo sapiens) | Condition not met |
| N=C(N)NCCC[C@H](NC(=O)[C@H](CCCNC(=N)N)NC(=O)[C@H](CCCNC(=N)N)NC(=O)[C@H](CCCNC(=N)N)NC(=O)CCCCCNC(=O)[C@H]1O[C@@H](n2cnc3c(N)ncnc32)[C@H](O)[C@@H]1O)C(N)=O [Compound 2] ({Adenosine(5'-uronoyl)-Ahx}-RRRR-NH2) | cAPK Cα (Homo sapiens) | Condition met |
| N=C(N)NCCC[C@@H](NC(=O)[C@@H](CCCNC(=N)N)NC(=O)[C@@H](CCCNC(=N)N)NC(=O)[C@@H](CCCNC(=N)N)NC(=O)CCCCCNC(=O)[C@H]1O[C@@H](n2cnc3c(N)ncnc32)[C@H](O)[C@@H]1O)C(N)=O [Compound 4] ({Adenosine(5'-uronoyl)-Ahx}-[dR][dR][dR][dR]-NH2) | cAPK Cα (Homo sapiens) | Condition met |
| N=C(N)NCCC[C@H](NC(=O)[C@H](CCCNC(=N)N)NC(=O)[C@H](CCCNC(=N)N)NC(=O)[C@H](CCCNC(=N)N)NC(=O)CCNC(=O)[C@H](Cc1ccccc1)NC(=O)[C@H]1O[C@@H](n2cnc3c(N)ncnc32)[C@H](O)[C@@H]1O)C(N)=O [Compound 8] ({Adenosine(5'-uronoyl)}-F[βAla]RRRR-NH2) | cAPK Cα (Homo sapiens) | Condition not met |
| CN(CCCCCC(=O)N[C@@H](CCCNC(=N)N)C(=O)N[C@@H](CCCNC(=N)N)C(=O)N[C@@H](CCCNC(=N)N)C(=O)N[C@@H](CCCNC(=N)N)C(N)=O)C(=O)[C@H]1O[C@@H](n2cnc3c(N)ncnc32)[C@H](O)[C@@H]1O [Compound 6] ({Adenosine(5'-uronoyl)}-[X3]RRRR-NH2) | cAPK Cα (Homo sapiens) | Condition met |

# TODO verify IC50 < 3 µM strictly for this compound: NCCNS(=O)(=O)c1cccc2cnccc12 [Compound H9, 5-isoquinolinesulfonyl ethylenediamine, reference compound]
Condition not met

Each recorded value in this set is attributed to patent US8158376B2.
